- RUN DESCRIPTION: growth modulation of vineyard yeast isolate – strain RM11-1a, OD600, basal, 24 h, primary screen (AID 1177);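 further: cultures grown under basal conditions with no added stressor; test concentration not given here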
- REPORTED CONDITIONS: S. cerevisiae RM11-1a growth, OD600, 24 h; higher = more signal, called active from +8 up or from −8 down
Note to self: class = bucket of z-score, per bucket 1 (below -0.1), bucket 2 (-0.1 to below 0.7), bucket 3 (0.7 or more)

Sample answers from the record:
O=C1NC(=O)C2C1C=CC(C(O)C1CC=CCC1)N2Nc1ccccn1 (configuration not stated) = bucket 2
COCCCNC(=O)[C@@H]1c2ccccc2C(=O)N(Cc2ccccc2)[C@H]1c1ccc(CO)cc1 = bucket 1
C=CC1c2cc(O)c(OC)cc2CCN1Cc1cccc(OC(F)(F)F)c1 (configuration not stated) = bucket 1
CCOC(=O)C[C@H]1[C@H](OC(=O)c2ccc(C(=O)c3ccccc3)cc2)[C@@H](NC(=O)Cc2ccc(OC)cc2)c2cc(OCCCO)ccc2N1C(=O)c1ccc2ccccc2n1 = bucket 2
Cc1ccc([C@H]2C(C(=O)O)=CCN2S(=O)(=O)c2ccc(C)cc2)cc1 = bucket 1

[ask] Could you tell me which band CCOC(=O)C1=CC[C@@H](c2ccc(C(F)(F)F)cc2)N(S(=O)(=O)c2ccc(C)cc2)[C@H]1c1ccccc1 belongs to?
[reply] bucket 1

[ask] Exercise: read the entry COC(=O)c1c(CC[C@@H](CO)NC(=O)N[C@H](Cc2ccccc2)Cn2cc(-c3ccccn3)nn2)oc(C(C)=O)c1C(=O)OC and state which class it falls under.
[reply] bucket 1

[ask] For the record CCCCN1CC=CC23O[C@@H]4/C=C\CCCOC(=O)C4[C@H]2C(=O)N(CCCO)[C@@H]3C1=O (some centres not stated) , report the class its z-score corresponds to.
[reply] bucket 1
